# ASSAY_SYSTEM: WT1RMF/HLA-A2 complex on cells (human)
# EXPERIMENTAL_PROTOCOL: flow cytometry, T2 cells pulsed with 50 µM WT1RMF, antibody titrated 0.00096-45 nM, MFI curve
pEC50: −log10 of the molar value.
MEASURED_ATTRIBUTE: pEC50

[
  {
    "BINDER": "1G7-IgG1-SI (antibody, V domains shown, VH and VL joined to IgG1 constant regions with SI mutations (S239D and I332E, EU numbering) in the Fc) VH: QVQLVESGGGVVRPGGSLRLSCTASGFTFDDYGMTWVRQAPGKGLEWVSGINWNGGSTGYADSVKGRFTISRDNAKNSLFLQMNSLRAEDTALYYCARDQGIAVVGTHYYYYYGMDVWGQGTAVTVSS VL: EIVLTQSPATLSLSPGERATLSCRASQSFSSYLAWYQQKPGQAPRLLIFDTSNRATGIPARFSGSGSGTDFTLTISSLEPEDFAVYYCQQRSNWPLTFGGGTKVEIK",
    "OBSERVED_RESULT": 9.47
  },
  {
    "BINDER": "P01264-IgG1-SI (antibody, V domains shown, VH and VL joined to IgG1 constant regions with SI mutations (S239D and I332E, EU numbering) in the Fc) VH: EVQLVESGGGLVKPGGSLRLSCAASGFTFSNAWMNWVRQAPGKGLEWVGRIKSKTDGGTTDYAAPVKGRFTISRHDSKNTLYLQMNSLKTEDTAVYYCATDPRIAVTGTDYYYGMDVWGQGTTVTVSS VL: DIVMTQTPSFLSASVGDRVTITCRASQDISNYLNWYQQKPGKAPKLLIYDASNLETGVPSRFSGSGSGTDFTFTISSLQPEDIATYYCQQYDNLPITFGQGTRLEIK",
    "OBSERVED_RESULT": 9.05
  }
]

These entries and their values trace back to patent US20260152571A1.
